Reported In vitro activity relative to native peptide (%), vs. GLP-1 (cAMP EC50) values are given for each entry in this list.
Tested target: human GLP-1 receptor (human, UniProt P43220 24-463)
Measurement notes: cell-based or functional assay
Positions of bridges follow the written chain, without caps; N, C: chain ends. Non-standard residues stand in square brackets, D forms with d. No end group written: not given here. *: point of attachment. Acetyl(2-(4-imidazolyl)) = O=C(Cc1c[nH]cn1)*; Aib = CC(C)(N)C(=O)O
Dear colleague, please return just the value in %, with no unit written.

# example entries with known answers
>>> print(df.to_string())
                                     binder  endpoint_value
0  H[Aib]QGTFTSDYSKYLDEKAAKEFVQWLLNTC (bridge 16-20) [trigonal agonist of SEQ ID NO: 29]            38.5
1  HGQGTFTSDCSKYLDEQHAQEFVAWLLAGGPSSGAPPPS [trigonal agonist of SEQ ID NO: 46]             1.4
2  H[Aib]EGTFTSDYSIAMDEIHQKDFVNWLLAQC (bridge 16-20) [trigonal agonist of SEQ ID NO: 53]             161
3  Y[Aib]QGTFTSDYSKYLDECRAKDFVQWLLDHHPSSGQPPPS (bridge 16-20) [trigonal agonist of SEQ ID NO: 66]            15.8
4  {Acetyl(2-(4-imidazolyl))}-[Aib]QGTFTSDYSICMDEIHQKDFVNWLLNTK (bridge 15-19) [trigonal agonist of SEQ ID NO: 49]            29.8

Okay, next one:
Asked: So what's the measured In vitro activity relative to native peptide (%), vs. GLP-1 (cAMP EC50) for this one? H[Aib]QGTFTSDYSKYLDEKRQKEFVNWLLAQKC (bridge 16-20) [trigonal agonist of SEQ ID NO: 34]
Given back: 19.1
